Where do the numbers come from? From PubChem BioAssay (EPA / NIEHS).

# Read-out: Cyclin Dependent Kinase Inhibitor 1A (CDKN1A), CDKN1A (gene 1026)
# TEST PROTOCOL: LTEA_HepaRG_CDKN1A: Life Technologies and Expression Analysis (LTEA) Assay for Cyclin Dependent Kinase Inhibitor 1A (CDKN1A) using HepaRG (AID 2283450)
# MEASUREMENT CONDITIONS: mRNA level, 48 h; actives raise or lower the signal
# Description: LTEA_HepaRG is a cell based, multiplexed-readout assay that uses HepaRG, a human liver cell line, with measurements taken at 48 hours after chemical dosing on a 96-well plate.LTEA_HepaRG_CDKN1A is one of 102 assay component(s) measured in the LTEA HepaRG cell culture assay. It is a marker of Cell proliferation, survival, death.Data from the assay component LTEA_HepaRG_CDKN1A was analyzed into 1 endpoint. […]
Activity calls are given as the source filed them. The calls were made as follows: active = hit-call score of the fitted dose curve at least 0.9, where 1 is the maximum; inactive = score below 0.9.
API: response.call in active, inactive

Look up the recorded call for CC(=O)S[C@H](C(=O)N[C@H]1Cc2ccccc2[C@H]2CCC[C@@H](C(=O)O)N2C1=O)C(C)C in this test.
inactive

// outcome(item) with item = O=C(O)CN(CC(=O)O)CC(=O)O
inactive

State the result this test recorded for COC(=O)[C@H]1[C@H]2C[C@@H]3c4[nH]c5cc(OC)ccc5c4CCN3C[C@H]2C[C@@H](OC(=O)c2cc(OC)c(OC)c(OC)c2)[C@@H]1OC .
inactive

Returns: the outcome recorded for CC1=C(C)S(=O)(=O)CCS1(=O)=O in this assay.
active

Short answer needed: outcome of this test for O=C1O[C@H]([C@H](O)CO)C(O)=C1O ?
inactive

Hey, what did the test say about CC(=O)OCC(COC(C)=O)OC(C)=O ?
inactive

Please state the recorded outcome for this molecule: C/C=C/c1ccc(OC)cc1
inactive

---

# EXPERIMENTAL SYSTEM: Cellular tumor antigen p53 (Homo sapiens)
# TEST PROTOCOL: ATG_p53_CIS: Attagene CIS-FACTORIAL HepG2 Assay for human p53 Transcription Factor (AID 2282994)
# MEASUREMENT CONDITIONS: HepG2 p53 cis-element reporter, Attagene mRNA; actives raise or lower the signal
Active and inactive are the calls of the source. Rule for the calls: active = hit-call score of the fitted dose curve at least 0.9, where 1 is the maximum; inactive = score below 0.9.
Just give me one of these, please: 1 for active, 0 for inactive

Tell me the assay call for COC(=O)CCC(=O)OC please.
0

I'd appreciate the recorded outcome for O=C1O[C@H]([C@H](O)CO)C(O)=C1O from this test.
0

Query: recorded result category for CO[C@@H]1COCC[C@@H]1N[C@@H]1CC[C@@](C(=O)N2CCc3ncc(C(F)(F)F)cc3C2)(C(C)C)C1 in this test
0

GET /call?item= CN(C)CCCN(C)CCCN(C)C returns the recorded outcome of this test.
0

For this compound, state the assay outcome: COC(=O)CCCC(=O)OC
0

Look up the recorded call for CCCCc1nc2cccnc2n1Cc1ccc(-c2ccccc2-c2nnn[nH]2)cc1 in this test.
0

What did this assay record as the result for O=[Si]=O ?
0

Outcome logged for CC(C)(C)c1ccccc1 in this assay:
0

Could you please tell me the result logged for CCCC[C@H]1CN(CC2CCOCC2)C(=O)OC12CCN(C1(C)CCN(C(=O)c3c(C)ncnc3C)CC1)CC2 in this assay?
0

Per the assay record, what outcome was assigned to CN(C)C(=O)NC1(c2ccccc2)CCN(CC[C@@]2(c3ccc(F)c(F)c3)CN(C(=O)c3ccccc3)CCO2)CC1 ?
1

Called result for c1ccc2occc2c1
0

# outcome recorded in this test, key = S=c1[nH]c2ccccc2s1
0

Please let me know the test result on file for CCc1nc(N)nc(N)c1-c1ccc(Cl)cc1 .
1

Hello, I am checking results. What call was entered for Oc1ccccc1O ?
0

# fetch the recorded call for O=C(O)c1[nH]n(-c2ccc(S(=O)(=O)O)cc2)c(=O)c1N=Nc1ccc(S(=O)(=O)O)cc1 here
0

Any idea what this test logged for COC(=O)[C@H]1[C@H]2C[C@@H]3c4[nH]c5cc(OC)ccc5c4CCN3C[C@H]2C[C@@H](OC(=O)c2cc(OC)c(OC)c(OC)c2)[C@@H]1OC ?
1

Could you check what this test reported for Oc1ccc(O)cc1 ?
0

How was Cc1ccc(C(C)(C)C)c(O)c1 classified in this test?
1

Could you please tell me the result logged for CC(C)c1cccc(C(C)C)c1NC(=O)NS(=O)(=O)c1cc(C(C)(C)O)co1 in this assay?
0

Which outcome did this test record for the compound CCCCCCCCCCCCCCOS(=O)(=O)O ?
0

Query: recorded result category for NC(=Nc1ccccc1)Nc1ccccc1 in this test
1

Recorded call for C=CCc1ccc(OC)c(OC)c1 ?
0

Entry CCCCCCC(CCCCCCCCCCC(=O)OCC(COC(C)=O)OC(C)=O)OC(C)=O (stereo not given) : call = ?
0

Lab log entry: COc1ccc(OC(F)(F)F)cc1CN[C@H]1CCCN[C@H]1c1ccccc1 — outcome as called in the assay?
1

Look up the recorded call for CCC(C)N(C)C(=O)c1cc2ccccc2c(-c2ccccc2Cl)n1 (stereo not given) in this test.
1

Outcome logged for Nc1nc(Cl)nc2c1ncn2[C@H]1C[C@H](O)[C@@H](CO)O1 in this assay:
0

Write down the call the test reported for this compound. Item: CC(C)(O)c1ccc(CNC(=O)c2cccnc2Oc2ccc(F)cc2)cc1
0

Recorded test outcome, item Cc1cc(Cc2ccc(N)c(C)c2)ccc1N
0

Which result was noted for this compound in the test: Cc1cc(SC2=C(O)C[C@@](CCc3ccc(N)cc3)(C(C)C)OC2=O)c(C(C)(C)C)cc1CO
0

For this compound, state the assay outcome: NCCOCCOCCN
0
